Reference for the values: the supplement of paper PMC10724198

Recorded protein stability index by entry
Tested on: Saccharomyces cerevisiae
Test: protein stability index of tFT-peptide fusion (C-terminal peptide) (PSI (0-1 scale)); higher = more stable (slower turnover)
Details: genetic background: wild type; temperature: 30 C
Answer with a number only.

Past entries and their recorded results:
# sequence string, observed
measured = [
    ("TSPSPPPTPCRS", 0.702),
    ("KKYNNMRKHYVK", 0.701),
    ("LTIEFSARLGNA", 0.663),
    ("SGEVFEDLRAPE", 0.743),
    ("SLLSSSALTASP", 0.65),
]

Data request: Give the observed protein stability index of VPLSALPPPPPA for Saccharomyces cerevisiae.
Data returned: 0.703

Data request: Give the observed protein stability index of SVGQWSGGRACW for Saccharomyces cerevisiae.
Data returned: 0.751

Data request: Give the observed protein stability index of EKKKQKHKKKKN for Saccharomyces cerevisiae.
Data returned: 0.706

Data request: Give the observed protein stability index of PPLRPFLLPPPS for Saccharomyces cerevisiae.
Data returned: 0.722

Data request: Give the observed protein stability index of SVGCRRGMDSRV for Saccharomyces cerevisiae.
Data returned: 0.702

Data request: Give the observed protein stability index of VTDSRAIMARRV for Saccharomyces cerevisiae.
Data returned: 0.645

Data request: Give the observed protein stability index of PVNQRPDGGNQD for Saccharomyces cerevisiae.
Data returned: 0.764

* * *

Test system: Saccharomyces cerevisiae
Test: protein stability index of tFT-peptide fusion (C-terminal peptide) (PSI (0-1 scale)); higher = more stable (slower turnover)
Settings: genetic background: wild type; temperature: 30 C
measured attribute: protein stability index

# sequence string, observed
data = [
    ("PPPPLPPPSHYP", 0.728),
]

Data request: Identify measured protein stability index associated with KKEDNKEKYRKK
Data returned: 0.667

Data request: Identify measured protein stability index associated with VGVCVGWDGRLW
Data returned: 0.691

Data request: Identify measured protein stability index associated with PAYVSTLPPLLL
Data returned: 0.694

Data request: Identify measured protein stability index associated with IGSARIKLLCYH
Data returned: 0.213

Data request: Identify measured protein stability index associated with LLCFRLFPALTP
Data returned: 0.623

* * *

Test system: Saccharomyces cerevisiae
Assay: protein stability index of tFT-peptide fusion (C-terminal peptide) (PSI (0-1 scale)); higher = more stable (slower turnover)
Details: genetic background: das1 deletion; temperature: 30 C
measured attribute: protein stability index

Past entries and their recorded results:
# sequence string, protein stability index
data = [
    ("ELFTIISRIIED [TSL1 C-terminal 12 aa]", 0.702),
    ("VDKLAGVRVLPV [GOT1 C-terminal 12 aa]", 0.67),
    ("DLKKLIWNEIFS [FUS3 C-terminal 12 aa]", 0.707),
    ("MQTHYILMKAQW [PPM1 C-terminal 12 aa]", 0.579),
    ("TKKLLRDYFSQF [SMN1 C-terminal 12 aa]", 0.712),
]

Data request: Identify measured protein stability index associated with FVRKIYSSIKVD [EMP70 C-terminal 12 aa]
Data returned: 0.665

Data request: Identify measured protein stability index associated with CENANYRGAEVP [YIL175W C-terminal 12 aa]
Data returned: 0.692

Data request: Identify measured protein stability index associated with KPLLTSIFPNHK [YBL012C C-terminal 12 aa]
Data returned: 0.718

Data request: Identify measured protein stability index associated with DGLLKNVWSYSR [RPS21A C-terminal 12 aa]
Data returned: 0.716

Data request: Identify measured protein stability index associated with SSTDMNGQPIEF [SKA1 C-terminal 12 aa]
Data returned: 0.688

Data request: Identify measured protein stability index associated with QVGKSQAQAVTL [ANY1 C-terminal 12 aa]
Data returned: 0.674

Data request: Identify measured protein stability index associated with EGRGYQQIHKLS [YHR139C-A C-terminal 12 aa]
Data returned: 0.721

* * *

Recorded protein stability index by entry
Tested on: Saccharomyces cerevisiae
Assay: protein stability index of tFT-peptide fusion (C-terminal peptide) (PSI (0-1 scale)); higher = more stable (slower turnover)
Conditions: genetic background: wild type; temperature: 30 C
Answer with a number only.

Past entries and their recorded results:
# sequence string, protein stability index
rows = [
    ("VLRVWGCGEVGV", 0.69),
    ("KKITSIHKKRER", 0.822),
    ("YGVFALFLSSLS", 0.576),
    ("CLFRVCLFILSI", 0.386),
    ("LRLSCGDRFRVG", 0.557),
]

Data request: Identify measured protein stability index associated with GWVVGGGRLGVV
Data returned: 0.723

Data request: Identify measured protein stability index associated with GREGKEKKKPRR
Data returned: 0.696

Data request: Identify measured protein stability index associated with LPPSSSPCPLPS
Data returned: 0.73

* * *

Tested on: Saccharomyces cerevisiae
Assay: protein stability index of tFT-peptide fusion (C-terminal peptide) (PSI (0-1 scale)); higher = more stable (slower turnover)
Conditions: genetic background: wild type; temperature: 37 C
measured attribute: protein stability index
Answer with a number only.

Data request: Identify measured protein stability index associated with FCVLLFFFPLII
Data returned: 0.374

* * *

Tested on: Saccharomyces cerevisiae
Test: protein stability index of tFT-peptide fusion (C-terminal peptide) (PSI (0-1 scale)); higher = more stable (slower turnover)
Details: genetic background: wild type; temperature: 30 C
measured attribute: protein stability index
Answer with a number only.

# sequence string, tested system, protein stability index
data = [
    ("PRKISSFESSLT", "Saccharomyces cerevisiae", 0.629),
    ("GPSRKCPFDVVS", "Saccharomyces cerevisiae", 0.665),
    ("PLLPPPPPLSPP", "Saccharomyces cerevisiae", 0.677),
]

Data request: Give the observed protein stability index of RRGTEGLGGGVG for Saccharomyces cerevisiae.
Data returned: 0.627

Data request: Give the observed protein stability index of PRLLSLKLSALS for Saccharomyces cerevisiae.
Data returned: 0.629

Data request: Give the observed protein stability index of VARFRGGPVPSF for Saccharomyces cerevisiae.
Data returned: 0.67

* * *

Recorded protein stability index by entry
Test system: Saccharomyces cerevisiae
Experiment: protein stability index of tFT-peptide fusion (C-terminal peptide) (PSI (0-1 scale)); higher = more stable (slower turnover)
Details: genetic background: wild type; temperature: 30 C
Answer with a number only.

# sequence string, observed
records = [
    ("VSNVSGKEYINV", 0.681),
    ("LCIRHFRLLELL", 0.276),
    ("GCGSWAWWCGRG", 0.894),
    ("PPPPPPLAAPPS", 0.71),
    ("SLPPPRSLSFPF", 0.673),
    ("SVHTQLSPMDTT", 0.64),
    ("AWGGELGATSGG", 0.711),
    ("PHPVTVFLSHLS", 0.499),
]

Data request: Give the observed protein stability index of SLLPLSLLSSPF for Saccharomyces cerevisiae.
Data returned: 0.664

Data request: Give the observed protein stability index of GESTNVYTTHWI for Saccharomyces cerevisiae.
Data returned: 0.736

Data request: Give the observed protein stability index of RPSTRARPKPTP for Saccharomyces cerevisiae.
Data returned: 0.693

Data request: Give the observed protein stability index of ALFVVLSGLSLR for Saccharomyces cerevisiae.
Data returned: 0.616

Data request: Give the observed protein stability index of SLPPPPSPVSLF for Saccharomyces cerevisiae.
Data returned: 0.611

Data request: Give the observed protein stability index of RPAFPIPSLYPS for Saccharomyces cerevisiae.
Data returned: 0.725

Data request: Give the observed protein stability index of VVGLVSIVQVIM for Saccharomyces cerevisiae.
Data returned: 0.397

Data request: Give the observed protein stability index of GGVATQARQTCN for Saccharomyces cerevisiae.
Data returned: 0.742

* * *

Tested on: Saccharomyces cerevisiae
Assay: protein stability index of tFT-peptide fusion (C-terminal peptide) (PSI (0-1 scale)); higher = more stable (slower turnover)
Details: genetic background: das1 deletion; temperature: 37 C
Mark 1 for reported protein stability index of 0.6 or greater; mark 0 for anything smaller.

Before answering, review these 8 worked examples.
# sequence string, class
measured = [
    ("VLLMFFFRFSAL", 1),
    ("PSFSLLRSLTLI", 1),
    ("LSFFICSFFFVL", 0),
    ("FLVPLSPMLLSA", 0),
    ("PRINTFVVVRVC", 0),
    ("FHRSVVRLWLRN", 1),
    ("FVFFRFSLLFFF", 0),
    ("PSLAASFWRVVG", 1),
]

Data request: Is it the case that SLSPVFVAVWFL has protein stability index reaching or exceeding 0.6?
Data returned: 0

* * *

System: Saccharomyces cerevisiae
Test: protein stability index of tFT-peptide fusion (C-terminal peptide) (PSI (0-1 scale)); higher = more stable (slower turnover)
Conditions: genetic background: wild type; temperature: 30 C
Mark condition met for reported protein stability index of 0.7 or greater; mark condition not met for anything smaller.

# sequence string, class
rows = [
    ("AWGPGRGGGGDA", "condition not met"),
    ("SPPPPPFCPLPA", "condition not met"),
    ("DERTTLMRGNNV", "condition not met"),
    ("NKFNTINQNREV", "condition not met"),
    ("WFWVAVGVVGGG", "condition not met"),
    ("ASSLKSTQVSGV", "condition met"),
]

We now examine a further sequence.
Data request: Is it the case that VPSPWVFSLFLH has protein stability index reaching or exceeding 0.7?
Data returned: condition not met
